# Tested on: T-47D breast
# protocol_details: NCI-60 one-dose screen, 48 h
# condition_description: 10 µM unless noted
# Method: Growth inhibition of the T-47D human tumor cell line is measured as a screen for anti-cancer activity. Cells are grown in 96 well plates and exposed to the test compound for 48 hours. Compounds are tested at a single concentration, which is 10^-5 M for most compounds. The reported endpoint is percent growth (GI% or GIPRCNT), where numbers from 0 - 100% represent growth inhibition, and numbers from -100% - 0 represent cell death. For example, a value of 40 represents 60% growth inhibition. […]
The panel holds about 83,000 compounds, 20% with a hit somewhere; the sample as a whole holds those more often. Activity calls are given as the source filed them. Rule for the calls: active = growth percent below 10; inactive = the rest.
Classes used: active, inactive

[[record]]
smiles_code = "NC(=O)c1ccc(NC(=O)c2oc3ccccc3c2-c2cnn(-c3ccccc3)c2)cc1"
category = "inactive"

[[record]]
smiles_code = "O=C(c1ccc(F)c(Cl)c1)N1c2ccccc2Sc2ccccc21"
category = "inactive"

[[record]]
smiles_code = "CCOC(=O)c1c(-c2ccc(Cl)cc2)c(C#N)c2c(C#N)c(N)nn2c1N"
category = "inactive"

[[record]]
smiles_code = "CCOC(=O)c1ccc2c(c1)c1c(C)c3ccncc3c(C)c1n2C"
category = "active"

[[record]]
smiles_code = "COc1ccc(Cn2cc(C(=O)N=Nc3c(O)[nH]c4c(Cl)cccc34)nn2)cc1"
category = "inactive"

[[record]]
smiles_code = "COc1cc(/C=N/Nc2ccccc2F)cc(OC)c1OC"
category = "inactive"

[[record]]
smiles_code = "CCn1cc(CNc2ccc(C(=O)Nc3cc4cc(OC)c(OC)cc4c(C)n3)cc2)c(C)n1"
category = "active"

[[record]]
smiles_code = "CC(C)(CO)N(CCO)CCO"
category = "inactive"

[[record]]
smiles_code = "Cc1[nH]c(/C=C/C(=O)c2ccc(C(F)(F)F)c(F)c2)c(C)c1C(=O)NCC(C)C"
category = "inactive"

[[record]]
smiles_code = "NC(=O)OCCn1cc(-c2nc(-c3c[nH]c4ncccc34)cs2)c2ccccc21"
category = "inactive"


* * *

# Tested on: SK-MEL-28 melanoma
# protocol_details: NCI-60 one-dose screen, 48 h
# condition_description: 10 µM unless noted
Compounds without any hit were thinned out: in the full panel of roughly 83,000, 20% have a hit. Calls of active or inactive are those of the source. How the source made its calls: active means growth percent below 10; inactive means the rest.
Classes used: YES for active, NO for inactive

[[record]]
compound = "Cn1cc(-c2csc(-c3cn(C(=O)OC(C)(C)C)c4ccccc34)n2)c2ccnc(Cl)c21"
target_or_test_system = "SK-MEL-28 melanoma"
category = "NO"

[[record]]
compound = "CCC/C(=N\\NC(N)=O)C(OC)OC"
target_or_test_system = "SK-MEL-28 melanoma"
category = "NO"

[[record]]
compound = "CCCn1c(=S)sc2c1nc(C)n1c(Nc3ccccc3)nnc21"
target_or_test_system = "SK-MEL-28 melanoma"
category = "NO"

[[record]]
compound = "Cc1ncc(C(=O)Nc2ccc(CN3CCN(C)CC3)c(C(F)(F)F)c2)cc1C#Cc1cnc(N)c2ccncc12"
target_or_test_system = "SK-MEL-28 melanoma"
category = "YES"

[[record]]
compound = "COc1cc(-c2cc(-c3ccc(Nc4ncnc5cc(Cl)ccc45)cc3)nc(N3CCN(C)CC3)n2)cc(OC)c1OC"
target_or_test_system = "SK-MEL-28 melanoma"
category = "NO"

[[record]]
compound = "O=C(N/N=C/c1ccc([N+](=O)[O-])cc1)c1ccc2nc(-c3ccc(Cl)cc3)[nH]c2c1"
target_or_test_system = "SK-MEL-28 melanoma"
category = "NO"

[[record]]
compound = "CCOC(=O)c1c(C)nc2ccccc2c1/C=C/c1ccc(OC)cc1"
target_or_test_system = "SK-MEL-28 melanoma"
category = "NO"

[[record]]
compound = "C[C@@H]1O[C@@H](O[C@@H]2C[C@H](c3ccc4c(c3O)C(=O)C3=C(C4=O)[C@@]4(O)C(=O)C[C@](C)(O)C[C@@]4(O)C=C3)O[C@H](C)[C@H]2O)C[C@H](O)[C@@H]1O"
target_or_test_system = "SK-MEL-28 melanoma"
category = "NO"

[[record]]
compound = "O=C(c1ccc(F)c(Cl)c1)N1c2ccccc2Sc2ccccc21"
target_or_test_system = "SK-MEL-28 melanoma"
category = "NO"

[[record]]
compound = "O=C(CCCCCCCCC(=O)N/N=C\\c1cc(Cl)ccc1O)N/N=C\\c1cc(Cl)ccc1O"
target_or_test_system = "SK-MEL-28 melanoma"
category = "NO"

[[record]]
compound = "Oc1c(CN2CCCC2)cc(COCc2ccccc2)c2cccnc12"
target_or_test_system = "SK-MEL-28 melanoma"
category = "NO"

[[record]]
compound = "COC(=O)c1nc(-c2ccccc2)oc1S(=O)(=O)N1CCC(C(N)=O)CC1"
target_or_test_system = "SK-MEL-28 melanoma"
category = "NO"

[[record]]
compound = "Cn1cc(-c2nn3cc(-c4ccccc4)nc3s2)c2ccccc21"
target_or_test_system = "SK-MEL-28 melanoma"
category = "NO"

[[record]]
compound = "COc1ccc(C2C(C#N)=C(N)Oc3c2sc2c(Br)cccc32)cc1 (stereo unspecified)"
target_or_test_system = "SK-MEL-28 melanoma"
category = "NO"

[[record]]
compound = "CCN(CC)CCCC(C)Nc1ccc2cc(OC)ccc2n1 (stereo unspecified)"
target_or_test_system = "SK-MEL-28 melanoma"
category = "NO"

[[record]]
compound = "COc1ccc2cc(Cn3cc[n+](Cc4ccc5ccccc5c4)c3)ccc2c1"
target_or_test_system = "SK-MEL-28 melanoma"
category = "NO"

[[record]]
compound = "O=S(=O)(c1ccccc1)N1CCCN(c2nc(-c3ccccc3)nc3nc(-c4ccccc4)oc23)CC1"
target_or_test_system = "SK-MEL-28 melanoma"
category = "NO"

[[record]]
compound = "CC(C)c1ccc(-n2c(=S)[nH]c3sc4c(c3c2=O)CCC(=O)C4)cc1"
target_or_test_system = "SK-MEL-28 melanoma"
category = "NO"

[[record]]
compound = "N#Cc1c(NC(=O)c2cccs2)[n+]([O-])c2ccc(Cl)cc2[n+]1[O-]"
target_or_test_system = "SK-MEL-28 melanoma"
category = "NO"

[[record]]
compound = "CCN1C(=O)N(CC)C2C1NN=c1s/c(=C\\c3cc4ccccc4[nH]3)c(=O)n12 (stereo unspecified)"
target_or_test_system = "SK-MEL-28 melanoma"
category = "NO"

[[record]]
compound = "O=C1NC(=C(Cl)Cl)/C(=N/S(=O)(=O)NCCc2c[nH]c3ccccc23)N1"
target_or_test_system = "SK-MEL-28 melanoma"
category = "NO"

[[record]]
compound = "O=C(Nc1ccccc1)c1sc(-c2ccccc2)cc1O"
target_or_test_system = "SK-MEL-28 melanoma"
category = "NO"

[[record]]
compound = "COc1ccc(Nc2ncc(C(N)=O)c(NCCCNC(=O)C3CCC3)n2)cc1"
target_or_test_system = "SK-MEL-28 melanoma"
category = "NO"

[[record]]
compound = "N=C(N)c1ccc(-c2ccc(-c3ccc(Cl)cc3Cl)s2)cc1F"
target_or_test_system = "SK-MEL-28 melanoma"
category = "NO"

[[record]]
compound = "CC(=O)c1c(Nc2ccc(F)c(F)c2F)[nH]c2c(F)cc(F)cc2c1=O"
target_or_test_system = "SK-MEL-28 melanoma"
category = "YES"

[[record]]
compound = "O=c1[nH]cnc2c1C(c1ccc(Br)cc1)c1sc3c(F)cccc3c1O2 (stereo unspecified)"
target_or_test_system = "SK-MEL-28 melanoma"
category = "NO"

[[record]]
compound = "Cc1[nH]c(C(=O)Nc2cccc(OC3CCNCC3)c2)c(Cl)c1Cl"
target_or_test_system = "SK-MEL-28 melanoma"
category = "YES"

[[record]]
compound = "COc1cc(Nc2c3ccc(Cl)cc3nc3ccc(OC)cc23)c2ncccc2c1"
target_or_test_system = "SK-MEL-28 melanoma"
category = "NO"

[[record]]
compound = "CN1CCN(Cc2ccc(NC(=O)c3cncc(C#Cc4cnn5ccccc45)c3)cc2C(F)(F)F)CC1"
target_or_test_system = "SK-MEL-28 melanoma"
category = "NO"

[[record]]
compound = "S=c1ssnc1-c1cccs1"
target_or_test_system = "SK-MEL-28 melanoma"
category = "NO"

[[record]]
compound = "COc1ccc(NC(=O)c2cccc(C3CCc4c(cc(OC)c(OC)c4OC)O3)c2)cc1 (stereo unspecified)"
target_or_test_system = "SK-MEL-28 melanoma"
category = "NO"

[[record]]
compound = "Nc1nc(C(=O)N/N=C/c2ccc(N3CCOCC3)cc2)nn1-c1ccc(S(N)(=O)=O)cc1"
target_or_test_system = "SK-MEL-28 melanoma"
category = "NO"

[[record]]
compound = "CCOC(=O)c1n[nH]n2c1nc(=O)c1cnn(C)c12"
target_or_test_system = "SK-MEL-28 melanoma"
category = "NO"

[[record]]
compound = "CCOc1ccc(NC(=O)c2cc(OC)c(OC)c(OC)c2)cc1"
target_or_test_system = "SK-MEL-28 melanoma"
category = "NO"

[[record]]
compound = "COc1cc(/C=N/Nc2ccccc2F)cc(OC)c1OC"
target_or_test_system = "SK-MEL-28 melanoma"
category = "NO"

[[record]]
compound = "CCOC(=O)c1c(C)c2c(n1C)CSc1cc(S(=O)(=O)c3ccccc3)c(=O)[nH]c1-2"
target_or_test_system = "SK-MEL-28 melanoma"
category = "NO"

[[record]]
compound = "COc1cc2cc(NCc3ccc(OC(F)F)cc3)nc(C)c2cc1OC"
target_or_test_system = "SK-MEL-28 melanoma"
category = "NO"

[[record]]
compound = "O=C(Nc1ncc(Cc2ccccc2Cl)s1)c1cccs1"
target_or_test_system = "SK-MEL-28 melanoma"
category = "NO"

[[record]]
compound = "COc1ccc(NC(=O)c2sc3nc4c(cc3c2N)CCCC4)cc1"
target_or_test_system = "SK-MEL-28 melanoma"
category = "NO"

[[record]]
compound = "COc1ccc(C(O)c2cc3c(N)c(C(=O)Nc4cccc(Cl)c4)sc3nc2C)cc1 (stereo unspecified)"
target_or_test_system = "SK-MEL-28 melanoma"
category = "NO"

[[record]]
compound = "O=C(CCCCCCN1CC(=O)N2[C@@H](c3ccc(Cl)cc3)c3[nH]c4ccccc4c3C[C@H]2C1=O)NO"
target_or_test_system = "SK-MEL-28 melanoma"
category = "NO"


Provenance of the data: PubChem BioAssay (NCI)
